- assayed target: PTGER2 (EP2) (Homo sapiens, UniProt P43116)
- Construct: host or cells: HEK 293 (PathHunter PTGER2 b-arrestin cell line)
- Sequence (P43116 whole entry): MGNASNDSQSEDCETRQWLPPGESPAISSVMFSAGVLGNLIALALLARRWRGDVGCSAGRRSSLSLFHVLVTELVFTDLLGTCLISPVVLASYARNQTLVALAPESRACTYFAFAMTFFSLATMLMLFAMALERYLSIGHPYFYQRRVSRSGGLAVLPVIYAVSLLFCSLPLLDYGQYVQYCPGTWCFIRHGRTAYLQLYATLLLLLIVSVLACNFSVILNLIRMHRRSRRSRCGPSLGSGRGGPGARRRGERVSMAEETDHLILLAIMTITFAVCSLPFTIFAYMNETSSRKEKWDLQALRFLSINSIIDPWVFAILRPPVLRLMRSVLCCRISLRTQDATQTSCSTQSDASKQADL
- experimental details: hEP2 b-arrestin assay (PathHunter HEK 293 PTGER2 b-arrestin cells)
- Type: cell-based
- conditions: antagonistic activity, beta-arrestin assay; read-out: hEP2 b-arr IC50
- Description: The antagonistic activities of the compounds of formula (I) on the EP2 and EP4 receptors are determined in accordance with the following experimental method. […] PathHunter Glo Detection Kit components are thawed and mix according to manufacturer's instructions: 1 part Galacton Star Substrate with 5 parts Emerald II™ Solution, and 19 parts of PathHunter Cell Assay Buffer, respectively. […] Luminescence counts are read on a BMG Fluostar Optima reader according to manufacturer's instructions. […]
Reported log10 IC50 values are given for each entry in this list.
Parameter value (number): base-10 log of IC50 in µM.

Observed log10 IC50 on PTGER2 (EP2) (Homo sapiens, UniProt P43116) for `CCCOc1cc(-c2cc(NCCc3c(C)sc4c(C)c(F)ccc34)ncn2)ccc1C(=O)O` , please.
-2.30

How about this compound: `CCOc1cc(-c2cc(NCCc3c(CC)oc4c(C)cc(F)cc34)ncn2)sc1C(=O)O`
-1.51

How about this compound: `CCOc1cc(-c2cc(NCCc3c(C)oc4c(C)cc(Cl)cc34)ncn2)ccc1C(=O)O`
-1.96

How about this compound: `Cc1oc2c(Cl)cccc2c1CCNc1cc(-c2ccc(C(=O)O)c(OC3CCC3)c2)ncn1`
-1.82

How about this compound: `CCOc1cc(-c2cc(NCCc3c(C)sc4c(C)cc(F)cc34)ncn2)ccc1OCCC(=O)O`
-1.28

More entries:
Observed log10 IC50 on PTGER2 (EP2) (Homo sapiens, UniProt P43116) for `CCOc1cc(-c2cc(NCCc3c(C)sc4c(C)cc(F)cc34)ncn2)ccc1C(N)=O` , please.
-2.00

How about this compound: `CCOc1cc(-c2cc(NCCc3c(C)sc4c(C)cccc34)ncn2)sc1C(=O)O`
-3.00

How about this compound: `CCOc1cc(-c2cc(NCCc3c(C#N)sc4c(C)cc(F)cc34)ncn2)ccc1OCCC(=O)O`
-2.05

How about this compound: `CCc1cc(-c2cc(NCCc3c(C)sc4c(C)cc(F)cc34)ncn2)sc1CC(=O)O`
-1.07

How about this compound: `Cc1sc2c(C)cc(F)cc2c1CCNc1cc(-c2ccc3[nH]ccc3c2)ncn1`
-1.40

How about this compound: `CCSc1cc(-c2cc(NCCc3c(C)oc4ccccc34)ncn2)ccc1C(=O)O`
-3.00

How about this compound: `CCOc1cc(-c2cc(NCCc3c(C)sc4c(C)ccc(F)c34)ncn2)ccc1CC(=O)O`
-1.42

* * *

- assayed target: PTGER4 (EP4) (Homo sapiens, UniProt P35408)
- Sequence (P35408 whole entry): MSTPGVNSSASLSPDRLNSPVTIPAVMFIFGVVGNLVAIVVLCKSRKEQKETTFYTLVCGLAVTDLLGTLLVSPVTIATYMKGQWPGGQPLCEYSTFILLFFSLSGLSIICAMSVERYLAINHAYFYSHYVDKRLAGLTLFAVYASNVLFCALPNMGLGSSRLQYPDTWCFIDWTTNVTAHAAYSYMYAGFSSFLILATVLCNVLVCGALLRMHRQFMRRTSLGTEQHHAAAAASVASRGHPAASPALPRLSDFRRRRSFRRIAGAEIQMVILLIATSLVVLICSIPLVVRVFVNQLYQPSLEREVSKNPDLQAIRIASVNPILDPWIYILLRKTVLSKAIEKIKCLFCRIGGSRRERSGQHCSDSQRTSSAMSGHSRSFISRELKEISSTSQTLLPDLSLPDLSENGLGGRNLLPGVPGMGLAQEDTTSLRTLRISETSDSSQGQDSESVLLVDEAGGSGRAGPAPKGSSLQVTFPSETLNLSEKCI
- experimental details: hEP4 b-arrestin assay (PathHunter HEK 293 PTGER4 b-arrestin cells)
- conditions: antagonistic activity, beta-arrestin assay; read-out: hEP4 b-arr IC50
attribute measured: pIC50
When answering, recall that pIC50 equals minus log10 of the concentration in mol/L, and write that number alone.

Solved entries (count: 5):
What value of pIC50 has been recorded for this entry: CCOc1cc(-c2cc(NCCc3c(C)sc4c(C)cc(F)cc34)ncn2)[nH]c1C(=O)O [Example 199]
6.44

How about this compound: CCOc1cc(-c2cc(NCCc3c(C)sc4c(C)cc(F)cc34)ncn2)sc1C(=O)NS(C)(=O)=O [Example 157]
7.38

How about this compound: COc1cc(Cl)cc2c(CCNc3cc(-c4ccc(C(=O)O)c(OC5CC5)c4)ncn3)c(C)oc12 [Example 83]
7.00

How about this compound: Cc1[nH]c(-c2cc(NCCc3c(C)sc4c(C)cc(F)cc34)ncn2)cc1C(=O)O [Example 205]
6.11

How about this compound: CSc1cc(-c2cc(NCCc3c(C#N)sc4c(C)cc(F)cc34)ncn2)ccc1C(=O)O [Example 12]
6.95

More entries:
What value of pIC50 has been recorded for this entry: CCOc1cc(-c2cc(NCCc3csc4ccccc34)ncn2)sc1C(=O)O [Example 33]
6.77

How about this compound: CCOc1cc(-c2cc(NCCc3c(C)sc4c(C)cc(F)cc34)ncn2)ccc1-c1nnn[nH]1 [Example 142]
7.39

How about this compound: COc1ccc(Cl)c2c(CCNc3cc(-c4ccc(C(=O)O)c(OC5CCCC5)c4)ncn3)c(C)sc12 [Example 153]
6.80
